Assign IC50 to each entry below.
Target: COX-2 (Homo sapiens)
Sequence (P35354 18-604): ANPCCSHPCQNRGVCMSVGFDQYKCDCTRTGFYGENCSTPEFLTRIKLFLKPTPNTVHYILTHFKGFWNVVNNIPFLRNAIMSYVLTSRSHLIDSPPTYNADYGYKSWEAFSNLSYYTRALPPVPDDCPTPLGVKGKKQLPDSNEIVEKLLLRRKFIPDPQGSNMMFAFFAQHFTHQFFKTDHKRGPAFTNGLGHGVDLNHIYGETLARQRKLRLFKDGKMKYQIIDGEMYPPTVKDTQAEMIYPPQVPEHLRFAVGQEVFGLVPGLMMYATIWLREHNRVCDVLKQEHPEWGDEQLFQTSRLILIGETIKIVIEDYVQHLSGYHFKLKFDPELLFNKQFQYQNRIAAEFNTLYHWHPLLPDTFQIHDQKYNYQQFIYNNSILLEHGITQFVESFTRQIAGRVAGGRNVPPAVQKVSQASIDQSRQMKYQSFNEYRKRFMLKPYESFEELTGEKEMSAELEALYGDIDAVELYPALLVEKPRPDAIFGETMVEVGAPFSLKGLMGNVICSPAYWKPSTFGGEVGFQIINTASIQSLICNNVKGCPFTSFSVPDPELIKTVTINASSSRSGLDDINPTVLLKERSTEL
Experiment: IC50 determinations using purified enzymes (TLC assay), COX-2
Format: biochemical
Set-up: made in house; host or cells: Sf9 insect cells
Conditions: Table 2; assayed against purified enzymes; read-out: IC50 COX-2
Numbers only, in nM.

Check out these entries, answers already filled in.
INSERT INTO results (compound, assay_readout, value_measured) VALUES
  ('COc1ccc2c(c1)c(CC(=O)Nc1ccc(S(=O)(=O)Nc3cc(OC)nc(OC)n3)cc1)c(C)n2C(=O)c1ccc(Cl)cc1 [Compound 27u]', 'IC50', 148),
  ('COC(=O)c1cc(-c2ccc(C)cc2)n(-c2ccc(S(N)(=O)=O)cc2)n1 [Compound 30b]', 'IC50', 920),
  ('COc1ccc2c(c1)c(CC(=O)NCCNC(=O)/C=C(C)/C=C/C=C(C)\C=C\C1=C(C)CCCC1(C)C)c(C)n2C(=O)c1ccc(Cl)cc1 [Compound 27s]', 'IC50', 388);

Known value: COX-2 (Homo sapiens) IC50 of the compound COc1ccc2c(c1)c(CC(=O)OCCN1CCN(CCCN3c4ccccc4Sc4ccc(Cl)cc43)CC1)c(C)n2C(=O)c1ccc(Cl)cc1 [Compound 27v] equals 387
